target: human metabotropic Glutamate 4 receptor (mGluR4) (Homo sapiens (Human)); assay: Assay A: in vitro testing of mGluR4 potency (glutamate-induced cAMP lowering, HTRF cAMP); settings: HEK293 cells overexpressing human mGluR4; 10 uM L-glutamic acid, 1 uM forskolin; compounds of the present invention
Sequence (Q14833 33-912): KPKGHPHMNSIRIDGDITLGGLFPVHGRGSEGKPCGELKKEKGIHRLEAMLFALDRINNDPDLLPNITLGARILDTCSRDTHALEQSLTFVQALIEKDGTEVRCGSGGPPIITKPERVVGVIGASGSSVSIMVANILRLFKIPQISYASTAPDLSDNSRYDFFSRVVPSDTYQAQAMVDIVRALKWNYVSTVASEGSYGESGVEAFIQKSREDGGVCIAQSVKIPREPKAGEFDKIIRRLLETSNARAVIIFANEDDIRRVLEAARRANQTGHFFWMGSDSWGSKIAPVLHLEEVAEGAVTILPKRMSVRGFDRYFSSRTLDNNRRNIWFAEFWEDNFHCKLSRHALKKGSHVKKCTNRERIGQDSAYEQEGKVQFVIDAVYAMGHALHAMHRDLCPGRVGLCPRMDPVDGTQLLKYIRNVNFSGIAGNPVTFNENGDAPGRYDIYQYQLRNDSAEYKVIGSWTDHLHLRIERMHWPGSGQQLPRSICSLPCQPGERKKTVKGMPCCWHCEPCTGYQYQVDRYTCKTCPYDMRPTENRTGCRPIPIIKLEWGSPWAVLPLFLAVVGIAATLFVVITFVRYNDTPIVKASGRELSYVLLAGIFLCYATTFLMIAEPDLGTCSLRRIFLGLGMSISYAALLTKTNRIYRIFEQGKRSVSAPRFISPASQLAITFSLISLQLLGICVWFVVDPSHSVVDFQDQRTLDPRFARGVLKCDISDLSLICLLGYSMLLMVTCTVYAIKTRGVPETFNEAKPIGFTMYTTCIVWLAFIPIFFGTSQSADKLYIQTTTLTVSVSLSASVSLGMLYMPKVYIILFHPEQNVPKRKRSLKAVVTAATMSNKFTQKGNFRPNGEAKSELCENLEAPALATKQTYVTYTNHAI
pIC50: −log10 of the molar value.
measureName: pIC50

Check out these entries, answers already filled in.
[[record]]
compound = "CCn1c(C(NC(=O)c2cnc(C)cn2)C2CCOC2)nc2cc(Cl)ccc21 (single isomer, unassigned) [Example 161]"
system = "human metabotropic Glutamate 4 receptor (mGluR4) (Homo sapiens (Human))"
measurename = "pIC50"
measurement = 7.85

[[record]]
compound = "CCn1c(C(NC(=O)c2cnc(C)cn2)C2CCOC2)nc2ccc(C(F)(F)F)cc21 (single isomer, unassigned) [Example 147]"
system = "human metabotropic Glutamate 4 receptor (mGluR4) (Homo sapiens (Human))"
measurename = "pIC50"
measurement = 7.96


(P) Cc1cnc(C(=O)N[C@H](c2nc3cc(C(F)(F)F)ccc3n2C)C2CC2)cn1
(Q) Cc1cnc(C(=O)N[C@@H](CC2CC2)c2nc3cc(Cl)ccc3n2C)cn1
Data request: Lower pIC50: P or Q ? Label of pick, please.
Data returned: Q
(Q: 8.00, P: 8.22)

====

Target: human metabotropic Glutamate 4 receptor (mGluR4) (Homo sapiens (Human))
Assay: Assay A: in vitro testing of mGluR4 potency (glutamate-induced cAMP lowering, HTRF cAMP)
Details: HEK293 cells overexpressing human mGluR4; 10 uM L-glutamic acid, 1 uM forskolin; compounds of the present invention
Method: A. In Vitro Testing of mGluR4 Potency The in vitro activity of the compounds according to the invention may be investigated as follows: The HEK293 cell overexpressing the human metabotropic Glutamate 4 receptor are thawed at 37° C. and immediately diluted with cell culture medium. […] The emission at 615 nm and 665 nm (Excitation wavelength: 320 nm) are measured on the EnVision™ reader (Perkin Elmer). The ratio between the emission at 665 nm and 615 is calculated by the reader. […]
measureName: IC50 (µM)

// known answers, use as guide
[[record]]
compound = "CCn1c(C(NC(=O)c2cnc(C)cn2)C2CCOC2)nc2cc(F)ccc21 (single isomer, unassigned)"
measurementunit = "µM"
measurement = 0.066

[[record]]
compound = "CCn1c([C@@H](NC(=O)c2cnc(C)cn2)C2CC2)nc2c(C)c(C#N)ccc21"
measurementunit = "µM"
measurement = 0.005

[[record]]
compound = "COC[C@@H](C)n1c([C@@H](NC(=O)c2cnc(C)cn2)[C@@H](C)OC)nc2cc(OC(F)(F)F)ccc21"
measurementunit = "µM"
measurement = 0.009

[[record]]
compound = "CCn1c([C@@H](NC(=O)c2cnc(C)cn2)C(C)(C)O)nc2cc(C(F)(F)F)ccc21"
measurementunit = "µM"
measurement = 0.017

[[record]]
compound = "Cn1c([C@H](CC2CC2)NC(=O)c2cnc(C(F)F)cn2)nc2cc(F)c(F)cc21"
measurementunit = "µM"
measurement = 0.016

[[record]]
compound = "CCn1c(C(NC(=O)c2cnc(C)cn2)C2CCOC2)nc2cc(F)c(F)cc21 (single isomer, unassigned) [Example 160]"
measurementunit = "µM"
measurement = 0.047

[[record]]
compound = "Cc1cnc(C(=O)N[C@@H](CC2CC2)c2nc3cc(Cl)ccc3n2C2CC2)cn1"
measurementunit = "µM"
measurement = 0.018

[[record]]
compound = "Cc1cnc(C(=O)N[C@H](c2nc3cc(F)ccc3n2CC(F)F)[C@]2(O)CCCOC2)cn1"
measurementunit = "µM"
measurement = 0.058


(A) Cc1cnc(C(=O)N[C@H](c2nc3c(C4CC4)c(Br)ccc3n2C)C2CC2)cn1
(B) CO[C@H](C)[C@H](NC(=O)c1cnc(C)cn1)c1nc2cc(F)c(F)cc2n1C
(C) Cc1cnc(C(=O)N[C@H](c2nc3cc(F)ccc3n2CC(F)(F)F)C2CC2)cn1
(D) COCCn1c(C(NC(=O)c2cnc(C)cn2)C2CCCO2)nc2cc(C(F)(F)F)ccc21 (single isomer, unassigned) [Example 19-1]
(E) O=C(N[C@@H](CC1CC1)c1nc2cc(F)ccc2n1CCOC(F)F)c1cnc(C(F)F)cn1
Data request: Order the entries by their reported IC50, beginning at the minimum. Provide your answer as the labels ordered per the instruction.
Data returned: A, C, E, D, B

(I) COCCn1c(C(NC(=O)c2cnc(C(F)F)cn2)C2CCOC2)nc2cc(F)ccc21 (single isomer, unassigned)
(II) CCn1c(C(NC(=O)c2cnc(C)cn2)C2CCOC2)nc2ccc(C(F)(F)F)cc21 (single isomer, unassigned) [Example 148]
Data request: Which item exceeds the other in IC50, I or II ? Answer by quoting the chosen item's label.
Data returned: I
(I: 0.06 µM, II: 0.014 µM)
